Value source: PubChem BioAssay (NCI)

Tested on: SW-620 colon
Assay: NCI-60 one-dose screen, 48 h
Settings: 10 µM unless noted
The panel holds about 83,000 compounds, 20% with a hit somewhere; the sample as a whole holds those more often. Activity calls are given as the source filed them. Rule for the calls: active = growth percent below 10; inactive = the rest.
Field 'call' accepts active, inactive

Some entries whose results are on file:
CC(=O)OC[C@@]1(C)C2CC[C@]3(C)C(CC=C4C5CC(C)(C)CC[C@]5(C(=O)Nc5ccc(Br)cc5)CC[C@]43C)[C@@]2(C)C[C@@H](OC(C)=O)[C@@H]1OC(C)=O (stereo partly drawn) :: inactive
Nc1cccc(SCc2cc3ccccc3[nH]c2=O)c1 :: inactive
N/C(=N\c1nc2ccccc2s1)NC(=O)Nc1ccc(Cl)cc1Cl :: active

Task item: Please let me know the test result on file for O=C(Nc1ccccc1)N1CCN(c2cc(-c3cn(-c4ccccc4)nc3-c3cccc(O)c3)ccn2)CC1 .
Reply: inactive

Task item: What did the test return for O=C1NC(=O)/C(=C/c2ccccc2OCc2cc3ccccc3nc2Cl)S1 ?
Reply: inactive

###

Tested on: SF-268 CNS
Assay: NCI-60 one-dose screen, 48 h (100 = growth as untreated, 0 = no growth, -100 = all killed)
Settings: 10 µM unless noted
About 83,000 compounds went through this panel and 20% of them were active in at least one assay; those are over-represented in the sample as a whole.
Measured parameter: growth (%)
Numbers only here, please. The scale is %.

CC1(C)CC[C@]2(C(=O)O)CC[C@]3(C)C(=CCC4[C@@]5(C)C[C@@H](O)[C@@H]6OC(c7cccc(Br)c7)OC[C@@]6(C)C5CC[C@]43C)C2C1 (stereo partly specified) :: 47.5
CN(C)CCOc1ccc(C(=O)C2[C@H](c3ccc(Cl)cc3)[C@@H](c3ccccc3)NC23C(=O)Nc2ccc(Br)cc23)cc1 (stereo partly specified) :: 41.8
COc1ccc2c(c1)c(-c1cc(N)n3nc(-c4cn(C)c5ccccc45)cc3n1)cn2C :: -56.5
COc1c(F)ccc(C(=O)Nc2ccc3nc(NC(=O)C4CCCN(S(=O)(=O)c5ccc(Br)s5)C4)sc3c2)c1F (stereo unspecified) :: 64.1

Could you now look at the following compound, please?
Task item: Please report the recorded growth for CN1CCN(c2ccc3c(c2)nc(NNC(=O)c2cnccn2)c2cccn23)CC1 .
Reply: 10.6

###

Let's look at some compounds and their measured growth.
Test system: EKVX NSCLC
Experiment: NCI-60 one-dose screen, 48 h (100 = growth as untreated, 0 = no growth, -100 = all killed)
Conditions: 10 µM unless noted
Compounds without any hit were thinned out: in the full panel of roughly 83,000, 20% have a hit.
I only need the number, in %, no unit after it.

Examples from the recorded data:
Cc1ccc([C@H]2C(C(=O)c3ccc(Cl)cc3)C3(N[C@@H]2c2ccccc2)C(=O)Nc2ccc(Cl)cc23)cc1 (stereo partly drawn) :: 59.8
COCOc1cc2oc(C(=O)N[C@@H](Cc3ccccc3)C(O)C(=O)NCc3ccccc3)c(C)c(=O)c2cc1OCOC (stereo partly drawn) :: 107
COc1ccc(-c2nc3cc(C)ccc3n2CC(=O)N=Nc2c(O)[nH]c3ccc(OC)cc23)cc1 :: -25.5

Task item: Consider the compound shown here: COc1c(F)ccc(C(=O)Nc2ccc3nc(NC(=O)C4CCCN(S(=O)(=O)c5cccc(Br)c5)C4)sc3c2)c1F (stereo not drawn) What is its recorded growth?
Reply: 90.9

Task item: Quick one: growth of O=c1oc2ccc(Br)cc2cc1C1=CSc2nc3sc4c(c3c(=O)n2N=C1)CCCC4 ?
Reply: 97

Task item: // growth lookup, key: O=C(Cn1c(/C=C/c2ccccc2)nc2ccccc2c1=O)Nc1ccccc1
Reply: 124

Task item: State the recorded growth for this entry: COc1cc(CNC(=O)/C=C/c2ccc3c(c2)OCO3)ccc1OCc1cn(-c2ccc([N+](=O)[O-])cc2)nn1
Reply: 71.5

Task item: Field request: growth | item: CNC(=O)c1cc(Oc2ccc3nc(NC(=O)Nc4cccc(OC(F)(F)F)c4)sc3c2)ccn1
Reply: 42.8
